B1: library; a variant is named by its letters at N, in order (parent)
chain: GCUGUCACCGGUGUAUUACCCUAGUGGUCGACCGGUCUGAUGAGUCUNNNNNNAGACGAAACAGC

Variants of: B1
Assay: FACS-Seq fitted mean relative fluorescence mCherry/BFP with ligand (log10 relative fluorescence); ligand: hypoxanthine (xanthine aptamer); ligand concentration (+) FACS-Seq: 5 mM; higher = higher reporter protein expression
Settings: HEK293T, ligand present: yes
So basically: FACS-Seq fitted mean (log10) at 0.6 or higher? That is t. Lower than 0.6? That is f.

Quick check, FACS-Seq fitted mean (log10) >= 0.6? GGAUGG
f

Determine whether measured FACS-Seq fitted mean (log10) meets or exceeds 0.6 for CUCGGG
f

Test whether the variant UGAGAG records FACS-Seq fitted mean (log10) of 0.6 or higher.
f

Please tell me: is the variant GGACAA at or over 0.6 in terms of FACS-Seq fitted mean (log10)?
f

Hello, I need to know if GACAGG has measured FACS-Seq fitted mean (log10) not below 0.6. Thanks!
f

Dear colleague, could you confirm whether AACACA has FACS-Seq fitted mean (log10) at or above 0.6?
f

Check this variant for FACS-Seq fitted mean (log10) at or above 0.6: GUAAUG
f

Textbook exercise: given the entry AGGCCU , state whether its FACS-Seq fitted mean (log10) is greater than or equal to 0.6.
f

For this variant, is measured FACS-Seq fitted mean (log10) 0.6 or higher? GGAGUC
f

Item GUUGUA with FACS-Seq fitted mean (log10) of 0.6 or above?
t

Check the entry UCUUGA : does FACS-Seq fitted mean (log10) equal or exceed 0.6?
f

API: above_or_equal(metric=FACS-Seq fitted mean (log10), cutoff=0.6) for item UCUCUG
f

Would you say CUAGGA shows FACS-Seq fitted mean (log10) at minimum 0.6?
t

Could you please find out whether UAGAGU has FACS-Seq fitted mean (log10) that meets 0.6 or exceeds it?
f

# check: FACS-Seq fitted mean (log10) of AGCUCG is greater than or equal to 0.6
f

# bool: FACS-Seq fitted mean (log10) of AACAGA >= 0.6
f

Does the reported FACS-Seq fitted mean (log10) for GCUGUG fall at or above the 0.6 mark?
f

Entry UGGUCG : is its FACS-Seq fitted mean (log10) no less than 0.6?
f

I'd appreciate it if you could say whether AAAACU has FACS-Seq fitted mean (log10) at least equal to 0.6.
f

Check the entry GGUUUG : does FACS-Seq fitted mean (log10) equal or exceed 0.6?
f

State whether the measured FACS-Seq fitted mean (log10) reaches 0.6, counting equality as reaching it, for AUCUAA
f

Does the variant UGAGUC have recorded FACS-Seq fitted mean (log10) that is 0.6 or more?
f

Check the entry AUCGAU : does FACS-Seq fitted mean (log10) equal or exceed 0.6?
f

Quick check, FACS-Seq fitted mean (log10) >= 0.6? UGUCCU
t

Dear colleague, could you confirm whether AUGAGA has FACS-Seq fitted mean (log10) at or above 0.6?
t

For this variant, is measured FACS-Seq fitted mean (log10) 0.6 or higher? UGCUAU
t

Is FACS-Seq fitted mean (log10) for AACGAA at or above 0.6?
f

Please indicate if the recorded FACS-Seq fitted mean (log10) for CUUGCA meets or exceeds 0.6.
t

Reported FACS-Seq fitted mean (log10) reaches at least 0.6 for GCUCGA ?
f

Textbook exercise: given the entry UCGAAG , state whether its FACS-Seq fitted mean (log10) is greater than or equal to 0.6.
t

Given GCUACG , state whether its FACS-Seq fitted mean (log10) is at least 0.6.
f

Exam item: decide whether the reported FACS-Seq fitted mean (log10) for AUUCAU is at least 0.6.
f

Does the variant UGUGGA have recorded FACS-Seq fitted mean (log10) that is 0.6 or more?
f

Is the recorded value of FACS-Seq fitted mean (log10) equal to or greater than 0.6 for this variant? GAGCGG
f

Reported FACS-Seq fitted mean (log10) reaches at least 0.6 for AAACCU ?
f

hey, is FACS-Seq fitted mean (log10) for this one >= 0.6? CGAGGU
t

Could you please find out whether UAAGCG has FACS-Seq fitted mean (log10) that meets 0.6 or exceeds it?
f

Form field: FACS-Seq fitted mean (log10) at least 0.6? Entry: UAUACA
f

Entry CCAUGA : is its FACS-Seq fitted mean (log10) no less than 0.6?
f

Please indicate if the recorded FACS-Seq fitted mean (log10) for ACUCCC meets or exceeds 0.6.
f

Exam item: decide whether the reported FACS-Seq fitted mean (log10) for CUACUA is at least 0.6.
f

Decide: FACS-Seq fitted mean (log10) of CGCUGC >= 0.6?
f

Could you verify whether the entry ACGUGU shows FACS-Seq fitted mean (log10) of no less than 0.6?
t

Would you say AAUACA shows FACS-Seq fitted mean (log10) at minimum 0.6?
f

Entry CACCGA : is its FACS-Seq fitted mean (log10) no less than 0.6?
f

Check the entry AUAUAC : does FACS-Seq fitted mean (log10) equal or exceed 0.6?
f

Reported FACS-Seq fitted mean (log10) at or above 0.6? GCAAUC
f

Can AGGGAC be said to have FACS-Seq fitted mean (log10) at or above 0.6?
f

Tell me whether FACS-Seq fitted mean (log10) is at least 0.6 here: AAAGCG
f

Determine whether measured FACS-Seq fitted mean (log10) meets or exceeds 0.6 for AAGUAG
f

Has GCAAAC a recorded FACS-Seq fitted mean (log10) greater than or equal to 0.6?
f

In plain terms: is recorded FACS-Seq fitted mean (log10) at least 0.6 for CUGUGG ?
t

Evaluate GUCCAC : FACS-Seq fitted mean (log10) at minimum 0.6?
f

Record GUACCG ; criterion: FACS-Seq fitted mean (log10) no lower than 0.6. Met?
f

Could you tell me if the measured FACS-Seq fitted mean (log10) of AUUUGU reaches 0.6 or more?
t

Determine whether this variant has FACS-Seq fitted mean (log10) no lower than 0.6: GGGUAU
f

Entry ACGUAA : is its FACS-Seq fitted mean (log10) no less than 0.6?
f

Reported FACS-Seq fitted mean (log10) reaches at least 0.6 for GUUUGG ?
t

Form field: FACS-Seq fitted mean (log10) at least 0.6? Entry: UUGAAG
t

Has UAUCAA a recorded FACS-Seq fitted mean (log10) greater than or equal to 0.6?
f

Hello, I need to know if AGAAAU has measured FACS-Seq fitted mean (log10) not below 0.6. Thanks!
f

Is it the case that GAUGGG has FACS-Seq fitted mean (log10) reaching or exceeding 0.6?
f

Test whether the variant AAGCGU records FACS-Seq fitted mean (log10) of 0.6 or higher.
f

Hello, I need to know if GUACCA has measured FACS-Seq fitted mean (log10) not below 0.6. Thanks!
f

Answer whether FACS-Seq fitted mean (log10) of UUUAGU is greater than or equal to 0.6.
t

Does the reported FACS-Seq fitted mean (log10) for GAGCUG fall at or above the 0.6 mark?
t

Could you verify whether the entry UGGAGC shows FACS-Seq fitted mean (log10) of no less than 0.6?
t

Does the variant CCGGGA have recorded FACS-Seq fitted mean (log10) that is 0.6 or more?
t

Determine whether this variant has FACS-Seq fitted mean (log10) no lower than 0.6: CAAAAC
f

Dear colleague, could you confirm whether UGCCAC has FACS-Seq fitted mean (log10) at or above 0.6?
f

Check this variant for FACS-Seq fitted mean (log10) at or above 0.6: CGUCAA
f

Exam item: decide whether the reported FACS-Seq fitted mean (log10) for AGUUAC is at least 0.6.
t

Evaluate GCCUUC : FACS-Seq fitted mean (log10) at minimum 0.6?
f

Entry UUACGU : is its FACS-Seq fitted mean (log10) no less than 0.6?
f

Reported FACS-Seq fitted mean (log10) at or above 0.6? ACAGGA
f

Is it the case that GCCGGU has FACS-Seq fitted mean (log10) reaching or exceeding 0.6?
t

Check the entry CUAGCA : does FACS-Seq fitted mean (log10) equal or exceed 0.6?
f

Does the reported FACS-Seq fitted mean (log10) for AAAUAG fall at or above the 0.6 mark?
f

Say whether CAAUCC shows FACS-Seq fitted mean (log10) of 0.6 or more.
f

For this variant, is measured FACS-Seq fitted mean (log10) 0.6 or higher? UCUGAA
f

Form field: FACS-Seq fitted mean (log10) at least 0.6? Entry: CAAUUU
f

Textbook exercise: given the entry AGGCAG , state whether its FACS-Seq fitted mean (log10) is greater than or equal to 0.6.
f

Hi team, for UCCAUG , is the recorded FACS-Seq fitted mean (log10) at or above 0.6?
f

Item AUUUGC with FACS-Seq fitted mean (log10) of 0.6 or above?
t
